test system: SK-MEL-28 melanoma; experiment: NCI-60 one-dose screen, 48 h (100 = growth as untreated, 0 = no growth, -100 = all killed); details: 10 µM unless noted
This is part of a sample that, as a whole, favours compounds with a hit. Of some 83,000 tested, about 20% had one in any assay.
Catalogue of growth values
Numbers only; they are read as %.

{"compound": "S=P(Nc1ccccc1)(Nc1ccccc1)c1ccccc1", "measurement-target": "SK-MEL-28 melanoma", "growth [%]": 119}
{"compound": "C[C@]12CC[C@@H]3c4ccc(OC(=O)Cc5ccc(N(CCCl)CCCl)cc5)cc4CC[C@H]3[C@@H]1CC[C@@H]2OC(=O)Cc1ccc(N(CCCl)CCCl)cc1", "measurement-target": "SK-MEL-28 melanoma", "growth [%]": 117}
{"compound": "CCC(C)[C@H]1O[C@]2(C=C[C@@H]1C)C[C@@H]1C[C@@H](C/C=C(\\C)[C@@H](OC3C[C@H](OC)C(O[C@H]4C[C@H](OC)[C@@H](O)[C@H](C)O4)[C@H](C)O3)[C@@H](C)/C=C/C=C3\\CO[C@@H]4[C@H](O)C(C)=C[C@@H](C(=O)O1)[C@]34O)O2 (some centres undefined)", "measurement-target": "SK-MEL-28 melanoma", "growth [%]": -82.4}
{"compound": "O=c1cc[nH]c(=O)o1", "measurement-target": "SK-MEL-28 melanoma", "growth [%]": 111}
{"compound": "c1ccc(CCN2CCCCC2Cc2ccccc2)cc1 (centres undefined)", "measurement-target": "SK-MEL-28 melanoma", "growth [%]": 97.5}

// map Cn1cnnc1[S-].[Au+].c1ccc([PH+](c2ccccc2)c2ccccc2)cc1 to recorded growth (system: SK-MEL-28 melanoma)
10.5

Lookup Nc1c(Br)cc([N+](=O)[O-])cc1[N+](=O)[O-]
116

Lookup NC(=O)C(Br)CBr (centres undefined)
-28

Lookup C#CC1(O)CCC2(C)C(CCC3C4CCC(=O)C4(C)CCC32)C1 (centres undefined)
105

Lookup [Cl][Hg][n]1cnc2c(Cl)c(Cl)c(Cl)cc21
107

Lookup CCOC(=O)Nc1cc(Cl)c([N+](=O)[O-])c(NC(=O)OCC)n1
79

Lookup O=C(CCc1ccco1)NC1CCN(CC2(c3ccc(Cl)cc3)CCC2)CC1
30.1
